# microsomal CLint at 1 uM per record follows
experiment: Metabolic stability in human hepatic microsome; assay type: in vitro ADME; conditions: human, microsomes, pH 7.4, CL NADPH(+)
Positions of bridges follow the written chain, without caps; N, C: chain ends. Non-standard residues stand in square brackets, D forms with d. Residues, ends and D or L forms follow the SMILES beside them. ξ: configuration not given here. *: point of attachment. NMeF = CN[C@@H](Cc1ccccc1)C(=O)O; NMeL = CN[C@@H](CC(C)C)C(=O)O; NMeA = CN[C@@H](C)C(=O)O; Piperidide = C1CCN(*)CC1; ξP = O=C(O)C1CCCN1
The reply should be a number in µL/min/mg, with the unit left off.

Sure, the documented microsomal CLint at 1 uM for C=C1CCC(=O)N[C@@H](C)C(=O)N(C)[C@@H](CC(C)C)C(=O)N[C@@H]([C@@H](C)CC)C(=O)N(C)[C@@H](Cc2ccccc2)C(=O)N(C)[C@@H](CC(C)C)C(=O)N(C)[C@@H](C(C)C)C(=O)N[C@@H](Cc2ccccc2)C(=O)N[C@@H]([C@@H](C)O)C(=O)N[C@H](C(=O)N2CCCCC2)Cc2cccc1c2 [DP-846] is 310

Entry CC(C)C[C@@H]1NC(=O)[C@H](CC(C)C)N(C)C(=O)[C@H](CC(C)C)N(C)C(=O)C[C@@H](C(=O)N2CCCCC2)NC(=O)[C@H](Cc2ccccc2)N(C)C(=O)C2CCCN2C(=O)[C@H]([C@@H](C)O)NC(=O)[C@H](Cc2ccccc2)N(C)C1=O (stereo partly drawn) [DP-706] ([NMeL][NMeL]L[NMeF]T[ξP][NMeF]D-Piperidide; lactam N-8) ; microsomal CLint at 1 uM = 264

// field: microsomal CLint at 1 uM; key: CC[C@H](C)[C@H](NC(=O)[C@H](C)N(C)C(=O)[C@@H]1CC(=O)N[C@@H](C)C(=O)N[C@@H]([C@@H](C)CC)C(=O)N(C)[C@@H](C)C(=O)N(C)[C@@H](Cc2ccccc2)C(=O)N[C@@H]([C@@H](C)O)C(=O)N(C)[C@@H](Cc2ccccc2)C(=O)N[C@@H](CC(C)C)C(=O)N2CCC[C@H]2C(=O)N1)C(=O)N1CCCCC1 [DP-668] (AI[NMeA][NMeF]T[NMeF]LPD[NMeA]I-Piperidide; lactam N-9) ; value = 142

----------
experiment: Metabolic stability in human hepatic microsome; type: in vitro ADME; conditions: human, microsomes, pH 7.4, CL NADPH(+)
Starred links: 1 amine or outer side, 2 acyl side, 3 side chain; linkers in the order of their positions; H or OH if unused. Positions of bridges follow the written chain, without caps; N, C: chain ends. Non-standard residues stand in square brackets, D forms with d. Residues, ends and D or L forms follow the SMILES beside them. ξ: configuration not given here. *: point of attachment. NMeF = CN[C@@H](Cc1ccccc1)C(=O)O; NMeI = CC[C@H](C)[C@H](NC)C(=O)O; NMeβAla = CN(CCC(=O)[*:2])[*:1]; NMeL = CN[C@@H](CC(C)C)C(=O)O; ξNMeF = CNC(Cc1ccccc1)C(=O)O; NMeV = CN[C@H](C(=O)O)C(C)C; NMeA = CN[C@@H](C)C(=O)O; Piperidide = C1CCN(*)CC1; Sar = CNCC(=O)O
As shown below, each of these molecules has a reported microsomal CLint at 1 uM value.
Quick reminder: number only, in µL/min/mg, skip the unit.

1) CC[C@H](C)[C@H]1C(=O)N[C@H](C(=O)N(C)[C@@H](Cc2ccccc2)C(=O)N(C)[C@@H](Cc2ccccc2)C(=O)N[C@@H](C)C(=O)N2CCCCC2)CC(=O)N(C)CC(=O)N(C)[C@@H](C)C(=O)N[C@@H]([C@@H](C)O)C(=O)N(C)[C@@H](C)C(=O)N(C)[C@@H](CC(C)C)C(=O)N(C)[C@@H](Cc2ccccc2)C(=O)N[C@@H](C(C)C)C(=O)N(C)[C@@H](CC(C)C)C(=O)N1C [DP-302] ([Sar][NMeA]T[NMeA][NMeL][NMeF]V[NMeL][NMeI]D[NMeF][NMeF]A-Piperidide; lactam N-10) :: 102
2) CC[C@H](C)[C@@H]1NC(=O)[C@H](CC(C)C)N(C)C(=O)CCN(C)C(=O)C[C@@H](C(=O)N2CCCCC2)NC(=O)[C@H](Cc2ccccc2)N(C)C(=O)[C@H](CC(C)C)NC(=O)CN(C)C(=O)[C@H]([C@@H](C)O)NC(=O)[C@H](C)N(C)C(=O)[C@H](C(C)C)N(C)C1=O [DP-118] ([NMeβAla][NMeL]I[NMeV][NMeA]T[Sar]L[NMeF]D-Piperidide; lactam N-10) :: 79

For this molecule ( CC(C)C[C@H]1C(=O)N(C)[C@@H](Cc2ccccc2)C(=O)N(C)[C@@H](Cc2ccccc2)C(=O)NCC(=O)N(C)[C@@H](C)C(=O)N[C@@H]([C@@H](C)O)C(=O)N[C@H](C(=O)N(C)[C@@H](Cc2ccccc2)C(=O)N(C)[C@@H](Cc2ccccc2)C(=O)N[C@@H](C)C(=O)N2CCCCC2)CC(=O)N(C)[C@@H](C)C(=O)N[C@@H](C(C)C)C(=O)N1C [DP-309] ([NMeA]V[NMeL][NMeF][NMeF]G[NMeA]TD[NMeF][NMeF]A-Piperidide; lactam N-9) ), measured microsomal CLint at 1 uM is 212

The reported microsomal CLint at 1 uM of the molecule CC(C)C[C@H]1C(=O)N[C@@H](C(C)C)C(=O)N[C@H](C(=O)N(C)C(Cc2ccccc2)C(=O)N(C)[C@@H](Cc2ccccc2)C(=O)N[C@@H](C)C(=O)N2CCCCC2)CC(=O)N[C@H](C)C(=O)N(C)[C@@H](C)C(=O)N(C)[C@@H](Cc2ccccc2)C(=O)N(C)[C@@H](CC(C)C)C(=O)N[C@@H]([C@@H](C)O)C(=O)N(C)CC(=O)N1C (some centres unmarked) [DP-315] ([dA][NMeA][NMeF][NMeL]T[Sar][NMeL]VD[ξNMeF][NMeF]A-Piperidide; lactam N-9) was 63

For this molecule ( CC(C)C[C@H]1C(=O)NCC(=O)N(C)[C@@H](Cc2ccccc2)C(=O)N(C)[C@@H](C(C)C)C(=O)N[C@@H]([C@@H](C)O)C(=O)N[C@H](C(=O)N(C)[C@@H](Cc2ccccc2)C(=O)N(C)[C@@H](Cc2ccccc2)C(=O)N[C@@H](C)C(=O)N2CCCCC2)CC(=O)N(C)CC(=O)N[C@@H](C(C)C)C(=O)N(C)[C@@H](CC(C)C)C(=O)N[C@@H](Cc2ccccc2)C(=O)N1C [DP-303] ([Sar]V[NMeL]F[NMeL]G[NMeF][NMeV]TD[NMeF][NMeF]A-Piperidide; lactam N-10) ), measured microsomal CLint at 1 uM is 27

----------
assay: Metabolic stability in human hepatic microsome; format: in vitro ADME; conditions: human, microsomes, pH 7.4, CL NADPH(+)
Positions of bridges follow the written chain, without caps; N, C: chain ends. Non-standard residues stand in square brackets, D forms with d. Residues, ends and D or L forms follow the SMILES beside them. *: point of attachment. NMeF = CN[C@@H](Cc1ccccc1)C(=O)O; NMeI = CC[C@H](C)[C@H](NC)C(=O)O; NMeL = CN[C@@H](CC(C)C)C(=O)O; NMeV = CN[C@H](C(=O)O)C(C)C; NMeA = CN[C@@H](C)C(=O)O; Piperidide = C1CCN(*)CC1; NPrGly = CCCNCC(=O)O; Sar = CNCC(=O)O; tBu = CC(C)(C)*
microsomal CLint at 1 uM listing for selected molecules.
Value expressed in µL/min/mg; do not type the unit.

Record excerpt, results attached:
1. CCCN1CC(=O)N(C)[C@@H](Cc2ccccc2)C(=O)N(C)[C@@H](Cc2ccccc2)C(=O)N(C)[C@@H](CC(C)C)C(=O)N2CCC[C@H]2C(=O)N(C)[C@@H](CC(C)C)C(=O)N[C@@H](C)C(=O)N(C)[C@@H](C(C)C)C(=O)N[C@H](C(=O)N2CCCCC2)CC(=O)N(C)[C@@H](C)C(=O)N[C@@H]([C@@H](C)O)C1=O [DP-541] ([NMeA]T[NPrGly][NMeF][NMeF][NMeL]P[NMeL]A[NMeV]D-Piperidide; lactam N-11) :: 22
2. CC[C@H](C)[C@H]1C(=O)N(C)[C@@H](C)C(=O)N[C@H](C(=O)N2CCCCC2)CC(=O)N(C)CC(=O)N[C@@H](COC(C)(C)C)C(=O)N(C)CC(=O)N(C)[C@@H](CC(C)C)C(=O)N[C@@H]([C@@H](C)O)C(=O)N(C)[C@@H](Cc2ccccc2)C(=O)N(C)[C@@H](CC(C)C)C(=O)N1C [DP-76] ([Sar]S(tBu)[Sar][NMeL]T[NMeF][NMeL][NMeI][NMeA]D-Piperidide; lactam N-10) :: 27

Proceed to the following item.
GET /value?item= CC[C@H](C)[C@@H]1NC(=O)[C@H](C)NC(=O)[C@H](CC(C)C)N(C)C(=O)[C@H](CC(C)C)NC(=O)[C@H](Cc2ccccc2)NC(=O)[C@H](C(C)C)NC(=O)[C@@H]2CCCN2C(=O)[C@H](CC(C)C)NC(=O)[C@H](Cc2ccccc2)N(C)C(=O)[C@H]([C@@H](C)O)NC(=O)CNC(=O)[C@H](C)NC(=O)C[C@@H](C(=O)N2CCCCC2)NC1=O [DP-20] (AGT[NMeF]LPVFL[NMeL]AID-Piperidide; lactam N-13) &field=microsomal CLint at 1 uM returns 97
